# assay target: purified recombinant human LTA4 hydrolase (hLTA4H) (Homo sapiens, UniProt P09960)
# Construct: A human LTA4 hydrolase full-length cDNA clone (NM_000895) was purchased from OriGene Technologies; own knowledge: pDEST17 adds an N-terminal 6xHis; made in house; host or cells: Escherichia coli BL21-AI
# Sequence (P09960 whole entry): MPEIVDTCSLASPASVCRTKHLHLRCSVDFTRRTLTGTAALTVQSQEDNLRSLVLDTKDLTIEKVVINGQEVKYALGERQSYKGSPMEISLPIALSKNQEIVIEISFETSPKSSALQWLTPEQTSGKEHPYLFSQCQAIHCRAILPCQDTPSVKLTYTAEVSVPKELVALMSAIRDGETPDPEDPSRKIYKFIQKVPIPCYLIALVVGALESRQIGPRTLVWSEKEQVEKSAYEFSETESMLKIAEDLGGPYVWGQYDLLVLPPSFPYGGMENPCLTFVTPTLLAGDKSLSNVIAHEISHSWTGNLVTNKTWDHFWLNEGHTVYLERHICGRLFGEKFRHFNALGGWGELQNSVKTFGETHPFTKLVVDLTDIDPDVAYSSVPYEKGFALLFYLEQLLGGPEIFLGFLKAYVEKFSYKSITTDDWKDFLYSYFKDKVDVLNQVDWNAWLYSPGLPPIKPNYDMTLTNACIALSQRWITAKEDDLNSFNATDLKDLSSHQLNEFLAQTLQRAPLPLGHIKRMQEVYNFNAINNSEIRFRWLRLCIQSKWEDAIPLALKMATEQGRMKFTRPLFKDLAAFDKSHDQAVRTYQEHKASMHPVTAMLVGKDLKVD
# test: In vitro assay testing inhibitory activity against purified recombinant human LTA4 hydrolase
# Format: biochemical
# applied conditions: 200 nM recombinant enzyme, 2 μM LTA4, LTB4 measured by LC-MS/MS
Counter-ions that a name gives are not always drawn.
Listed compounds paired with reported IC50

Examples from the recorded data:
Ic1ccc(Oc2ccc(N3CCOCC3)cc2)cc1 [Example 24, 4-[4-(4-Iodo-phenoxy)-phenyl]-morpholine] : < 5 µM
O=C(O)CCN1CCN(c2ccc(Oc3ccc(-c4ccsc4)cc3)cc2)CC1 [Example 16, sodium salt] : < 5 µM
c1cc(-c2ccc(Oc3ccc(N4CCNCC4)cc3)cc2)cs1 [Example 23, hydrochloride] : < 5 µM
O=C(O)CCCN1CCN(c2ccc(Oc3ccc(I)cc3)cc2)CC1 [Example 15, sodium salt] : < 5 µM
FC(F)(F)c1ccc(Oc2ccc(N3CCNCC3)cc2)cc1 : < 5 µM
Ic1ccc(Oc2ccc(N3CCNCC3)cc2)cc1 [Example 14, hydrochloride] : < 5 µM

Need IC50 of c1cc(-c2ccc(Oc3ccc(N4CCOCC4)cc3)cc2)cs1 , thanks.
< 5 µM

Need IC50 of c1ccc(Cc2ccc(N3CCNCC3)cc2)cc1 [Example 4, hydrochloride] , thanks.
< 5 µM

Need IC50 of O=C(O)CCCN1CCN(c2ccc(Cc3ccccc3)cc2)CC1 [Example 6, sodium salt] , thanks.
< 5 µM

Need IC50 of O=C(O)CCN1CCN(c2ccc(Cc3ccccc3)cc2)CC1 [Example 7, sodium salt] , thanks.
< 5 µM

Need IC50 of Cc1ccc(Oc2ccc(N3CCNCC3)cc2)cc1 [Example 18, 1-(4-p-Tolyloxy-phenyl]-piperazine] , thanks.
< 5 µM

Need IC50 of NC1CCN(c2ccc(Oc3ccccc3)cc2)CC1 [Example 12, hydrochloride] , thanks.
5 to 20 µM

Need IC50 of O=C(O)CCCN1CCN(c2ccc(Nc3ccccc3)cc2)CC1 [Example 3, sodium salt] , thanks.
5 to 20 µM

Need IC50 of COc1ccc(Oc2ccc(N3CCNCC3)cc2)cc1 , thanks.
5 to 20 µM

Need IC50 of COC(=O)CCCN1CCN(c2ccc(Cc3ccccc3)cc2)CC1 , thanks.
< 5 µM

Need IC50 of Clc1ccc(-c2ccc(Oc3ccc(N4CCNCC4)cc3)cc2)s1 [Example 26, hydrochloride] , thanks.
5 to 20 µM

Need IC50 of CC(=O)N1CCN(c2ccc(Oc3ccccc3)cc2)CC1 , thanks.
< 5 µM

These measurements were taken from patent US7750012B2.
